Source listed as the Human Domainome abundance scans (Beltran et al. 2025).

B1: Syntaxin-binding protein 4, residues 493 to 538; numbered along this chain, Q6ZWJ1 (parent)
chain: LDMDCLPYGWEEAYTADGIKYFINHVTQTTSWIHPVMSVLNLSRSE

# Variants of: B1
# test: abundance fitness (aPCA) (normalised: wild type 0, dead -1); higher = more abundant; growth selection in yeast, the domain comes from the species named
# experimental_context: Homo sapiens
readout_name: abundance fitness
Give the value as a plain number.

{"change": "S45V", "readout_name": "abundance fitness", "quantitative_result": -0.103}
{"change": "G18N", "readout_name": "abundance fitness", "quantitative_result": -0.845}
{"change": "L1Y", "readout_name": "abundance fitness", "quantitative_result": -0.198}
{"change": "L42G", "readout_name": "abundance fitness", "quantitative_result": 0.174}
{"change": "Y21N", "readout_name": "abundance fitness", "quantitative_result": -0.731}

Query T30V yields abundance fitness of -0.691

Query S31W yields abundance fitness of -0.922
